# system: Type-2 angiotensin II receptor (Sus scrofa)
# procedure summary: Displacement of [125I]Ang2 from AT2 receptor in pig uterus membrane
test readout: Ki (nM)

Reference set (2 entries):
COCCOC(=O)NS(=O)(=O)c1sc(CC(C)C)cc1-c1ccc(Cn2ccnc2)cc1
31
CCCCOC(=O)NS(=O)(=O)c1ccc(OC(C)C)cc1-c1ccc(Cn2ccnc2)cc1
15

[A] CCCCc1ccc(S(=O)(=O)NC(=O)OCC)c(-c2ccc(Cn3ccnc3)cc2)c1
[B] CC(C)Cc1cc(-c2ccc(Cn3ccnc3)cc2)c(S(=O)(=O)NC(=O)OC(C)C)s1
[C] CCCCN(C)C(=O)NS(=O)(=O)c1sc(CC(C)C)cc1-c1ccc(Cn2ccnc2)cc1
Query: Hey, quick one: sort these by Ki, low to high? Record the ranking as a list of labels in the requested order.
Response: A, C, B
(A: 2 nM, C: 4 nM, B: 75 nM)
